Experiment Notes: Ratio of drug concentration in Sprague-Dawley rat eye ball to plasma at 1 mg/kg, iv after 8 hrs by LC-MS/MS analysis
Format: ADME, organism-based
Observation Type: Kp at 8 h

Qu. Provide Kp at 8 h value for the following compound: O=C1CC(c2cc(Cl)c(O)c(Cl)c2)Oc2cc(O)cc(O)c21 (stereo unspecified)
Ans. 0.209

----------
Study Target: Transthyretin (Homo sapiens, UniProt P02766, V50M)
Experiment Notes: Binding affinity to TTR V30M mutant (unknown origin) expressed in Escherichia coli by ITC assay
# label = condition met if Kd < 400 nM else condition not met

// known answers, use as guide
>>> print(df.to_string())
                                   compound     category_label
0  O=C1CC(c2cc(Cl)cc(Cl)c2)Oc2cc(O)cc(O)c21 (stereo unspecified)      condition met
1  O=C1CC(c2cc(Cl)c(O)c(Cl)c2)Oc2cc(O)cc(O)c21 (stereo unspecified)      condition met
2  O=C1CC(c2cc(Cl)c(O)c(Cl)c2)Oc2cc(O)ccc21 (stereo unspecified)      condition met
3  O=C1C[C@@H](c2ccc(O)cc2)Oc2cc(O)cc(O)c21  condition not met

Qu. Here's an entry: O=C1CC(c2cc(Cl)c(O)c(Cl)c2)Oc2cccc(O)c21 (stereo unspecified) . Is its Kd below 400 nM?
Ans. condition met

----------
Experiment Notes: Ratio of drug concentration in Sprague-Dawley rat brain to plasma at 1 mg/kg, po after 8 hrs by LC-MS/MS analysis
Type: ADME, organism-based
Observation Type: Kp at 8 h
# answer = number (no unit)

Qu. Provide Kp at 8 h value for the following molecule: O=C1CC(c2cc(Cl)c(O)c(Cl)c2)Oc2cc(O)cc(O)c21 (stereo unspecified)
Ans. 0.058

src = ChEMBL document CHEMBL5236616
